Let's look at some compounds and their measured activity, negative = inhibition.
- Target under test: Cytochrome P450 2D6 (Homo sapiens) (UniProt P10635)
- Sequence (P10635 whole entry, looked up): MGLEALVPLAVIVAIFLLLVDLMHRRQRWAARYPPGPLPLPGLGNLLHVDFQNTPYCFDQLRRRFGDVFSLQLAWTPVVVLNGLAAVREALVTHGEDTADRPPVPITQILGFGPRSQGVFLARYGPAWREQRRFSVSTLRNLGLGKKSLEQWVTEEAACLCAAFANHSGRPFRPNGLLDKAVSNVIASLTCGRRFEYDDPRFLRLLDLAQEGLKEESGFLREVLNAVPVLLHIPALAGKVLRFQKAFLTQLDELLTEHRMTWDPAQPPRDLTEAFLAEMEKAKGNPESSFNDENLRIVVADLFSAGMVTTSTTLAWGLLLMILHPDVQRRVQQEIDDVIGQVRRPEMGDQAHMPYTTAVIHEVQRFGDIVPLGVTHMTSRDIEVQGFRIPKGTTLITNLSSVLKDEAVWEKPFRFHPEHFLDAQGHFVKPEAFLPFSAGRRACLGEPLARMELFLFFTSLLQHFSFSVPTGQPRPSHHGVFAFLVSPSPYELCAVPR
- Experiment summary: Cytochrome panel assay with activity outcomes; note: % is set by controls: 0 for no effect and ±100 for the full control effect
- Measurement conditions: recombinant CYP, pro-luciferin dealkylation, luminescence, p450-cyp2d6; series mostly up to 57.1 µM
In all, about 16,000 compounds went through this assay and about 2,600 (16%) were called active. Inconclusive results (about 20%) are left out. These entries were drawn from the full list.

Below, 2 compounds whose answers are already recorded.
[
  {
    "Smiles string": "CC(C)(C)CNCCO",
    "Result": "17.6% [at 11.4 µM] (inactive)"
  },
  {
    "Smiles string": "COC(=O)C/C=C\\[C@@H](C)[C@@H](/C=N\\OC[C@@H](O)[C@H]1O[C@H]2OC(C)(C)O[C@H]2[C@@H]1O)NS(=O)(=O)c1ccc(C)cc1",
    "Result": "-10.1% [at 11.4 µM] (inactive)"
  }
]

Lookup: Please give the measured activity, negative = inhibition for this compound: O=C(O)c1ccccc1C1c2ccccc2Oc2ccccc21
Found: -7.56% [at 11.4 µM] (inactive)

Lookup: Need activity, negative = inhibition, item CO/N=C\c1ccc(C(=O)N2[C@H](c3ccc(C)cc3)[C@@H](C)CC[C@H]2C(=O)OC)cc1
Found: 16% [at 11.4 µM] (inactive)

Lookup: Look up activity, negative = inhibition: C(/C=C\c1ccccc1)=Nc1ccc2c(c1)Cc1ccccc1-2
Found: -10.4% [at 11.4 µM] (inactive)

Lookup: Can you look up the measured activity, negative = inhibition of O=C(CC1(O)CCCCC1)OC1CCCC1 for me?
Found: -5.94% [at 11.4 µM] (inactive)

Lookup: What activity, negative = inhibition value was documented for this compound, CC(C)(SCc1ccccc1)[C@H](N)C(=O)O ?
Found: 1.44% [at 11.4 µM] (inactive)

Lookup: Look up activity, negative = inhibition for this compound: CN(C)CCSCCO
Found: 7.16% [at 11.4 µM] (inactive)

Lookup: Could you share which activity, negative = inhibition value was measured for Clc1ccc(-c2nnc(-c3cccc4ccccc34)o2)cc1Cl ?
Found: 17.5% [at 11.4 µM] (inactive)

Lookup: Could you share which activity, negative = inhibition value was measured for NS(=O)(=O)c1ccc(N=Nc2ccc(O)c(C(=O)O)c2)cc1 ?
Found: -7.58% [at 11.4 µM] (inactive)

Lookup: Given C[C@@H](CNC(N)=O)NC(N)=O , state its recorded activity, negative = inhibition.
Found: -3.67% [at 11.4 µM] (inactive)

Lookup: // query activity, negative = inhibition value for entry CO[C@H]1COC(=O)[C@@H](C)COC(=O)[C@@H](COCc2ccccc2)NC(=O)C/C=C\[C@H]1C
Found: 6.49% [at 11.4 µM] (inactive)

Lookup: Consider the compound Cc1ccnc(NS(=O)(=O)c2ccc(N=[N+]=[N-])cc2)n1 and give its measured activity, negative = inhibition.
Found: 10.7% [at 11.4 µM] (inactive)

Lookup: Which activity, negative = inhibition is reported for this compound? O=S(=O)(O)c1ccc(N=Nc2ccc3c(S(=O)(=O)O)cccc3c2O)c2ccccc12
Found: -18.7% [at 11.4 µM] (inactive)

Lookup: Recorded activity, negative = inhibition for c1ccc([C@H](CCN2CCCC2)c2ccccn2)cc1 , please?
Found: 12% [at 11.4 µM] (inactive)

Lookup: Recorded activity, negative = inhibition of COC(=O)[C@@H]1CC[C@H](C)[C@@H](c2ccc(C)cc2)N1C(=O)c1ccc(/C=N\OC[C@@H](O)COCc2ccco2)cc1 , please.
Found: -0.0575% [at 11.4 µM] (inactive)
